Please consider the recorded pIC50 for Tumour suppressor p53/oncoprotein Mdm2 (Homo sapiens) in what follows.
Entry type: numeric. Quantity: pIC50, the -log10 of concentration in molar units.

Please look up its pIC50: O=C(O)[C@H](c1ccc(Cl)cc1)N1C(=O)c2cc(I)ccc2NC(=O)[C@@H]1c1ccc(C(F)(F)F)cc1
6.21

* * *

- method-description: Dissociation constant was determined; (by measuring difference in protein melting temperature)
- Type: physicochemical
quantity-measured: Kd (nM)
Numeric only. Scale: nM

These solved cases illustrate the format of a correct answer.
| chem-smiles | Kd (nM) |
| --- | --- |
| C#Cc1ccc2c(c1)C(=O)N([C@H](C(=O)O)c1ccc(Cl)cc1)[C@@H](c1ccc(Cl)cc1)C(=O)N2 | 250 |
| O=C(O)[C@H](c1ccc(Cl)cc1)N1C(=O)c2ccc(Cl)cc2NC(=O)[C@@H]1c1ccc(Cl)cc1 | 1670 |
| O=C(O)[C@H](c1ccc(Br)cc1)N1C(=O)c2cc(I)ccc2NC(=O)[C@@H]1c1ccc(Cl)cc1 | 83 |

Kd for O=C(O)[C@H](c1ccc(O)cc1)N1C(=O)c2cc(I)ccc2NC(=O)[C@@H]1c1ccc(Cl)cc1 ?
14300

* * *

- method-description: Dissociation constant was determined; (by measuring difference in protein melting temperature)
- Type: physicochemical
quantity-measured: Kd

Completed entries (count: 2):
| chem-smiles | recorded-value |
| --- | --- |
| O=C(O)[C@H](c1ccc(Cl)cc1)N1C(=O)c2cc(Br)ccc2NC(=O)[C@@H]1c1ccc(Cl)cc1 | 970 nM |
| CC(C)c1ccc([C@@H](C(=O)O)N2C(=O)c3cc(I)ccc3NC(=O)[C@@H]2c2ccc(Cl)cc2)cc1 | 83 nM |

I am curious: what Kd value has been reported for Cc1ccc([C@@H](C(=O)O)N2C(=O)c3cc(I)ccc3NC(=O)[C@@H]2c2ccc(Cl)cc2)cc1 ?
167 nM

Would you mind doing O=C(O)[C@H](c1ccc(Cl)cc1)N1C(=O)c2cc(I)c(Cl)cc2NC(=O)[C@@H]1c1ccc(Cl)cc1 as well?
167 nM

Now try O=C(O)[C@H](c1ccc(Cl)cc1)N1C(=O)c2cc(I)ccc2NC(=O)[C@@H]1c1ccc(OC(F)(F)F)cc1 .
760 nM

Quick one: N#Cc1ccc2c(c1)C(=O)N([C@H](C(=O)O)c1ccc(Cl)cc1)[C@@H](c1ccc(Cl)cc1)C(=O)N2
10000 nM

Entry to check: O=C(O)[C@H](c1ccc(Cl)cc1)N1C(=O)c2cc(Cl)ccc2NC(=O)[C@@H]1c1ccc(Cl)cc1
1530 nM

Further, for O=C(O)[C@H](c1ccc(Cl)cc1)N1C(=O)c2ccccc2NC(=O)[C@@H]1c1ccc(Cl)cc1 ?
7690 nM

* * *

- measured-target: Tumour suppressor p53/oncoprotein Mdm2 (Homo sapiens)
# binning rule on IC50: interval 1 (below 1 µM), interval 2 (1 µM to below 7 µM), interval 3 (7 µM or more)

Band for the recorded IC50 of CC(C)(C)c1ccc([C@@H](C(=O)O)N2C(=O)c3cc(I)ccc3NC(=O)[C@@H]2c2ccc(Cl)cc2)cc1 ?
interval 2

* * *

- measured-target: Tumour suppressor p53/oncoprotein Mdm2 (Homo sapiens, UniProt Q00987)
- Sequence (P04637 whole entry): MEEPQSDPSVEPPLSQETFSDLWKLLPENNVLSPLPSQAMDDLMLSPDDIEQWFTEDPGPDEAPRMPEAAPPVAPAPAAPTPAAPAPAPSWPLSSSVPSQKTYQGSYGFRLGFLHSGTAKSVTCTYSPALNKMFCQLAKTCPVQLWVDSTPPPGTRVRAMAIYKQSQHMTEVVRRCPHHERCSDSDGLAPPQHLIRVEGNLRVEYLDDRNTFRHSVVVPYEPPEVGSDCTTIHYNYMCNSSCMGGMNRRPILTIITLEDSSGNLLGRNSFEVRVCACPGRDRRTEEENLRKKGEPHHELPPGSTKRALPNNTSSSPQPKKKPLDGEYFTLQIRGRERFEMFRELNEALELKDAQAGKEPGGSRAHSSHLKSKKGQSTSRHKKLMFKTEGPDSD
- Sequence (Q00987 whole entry): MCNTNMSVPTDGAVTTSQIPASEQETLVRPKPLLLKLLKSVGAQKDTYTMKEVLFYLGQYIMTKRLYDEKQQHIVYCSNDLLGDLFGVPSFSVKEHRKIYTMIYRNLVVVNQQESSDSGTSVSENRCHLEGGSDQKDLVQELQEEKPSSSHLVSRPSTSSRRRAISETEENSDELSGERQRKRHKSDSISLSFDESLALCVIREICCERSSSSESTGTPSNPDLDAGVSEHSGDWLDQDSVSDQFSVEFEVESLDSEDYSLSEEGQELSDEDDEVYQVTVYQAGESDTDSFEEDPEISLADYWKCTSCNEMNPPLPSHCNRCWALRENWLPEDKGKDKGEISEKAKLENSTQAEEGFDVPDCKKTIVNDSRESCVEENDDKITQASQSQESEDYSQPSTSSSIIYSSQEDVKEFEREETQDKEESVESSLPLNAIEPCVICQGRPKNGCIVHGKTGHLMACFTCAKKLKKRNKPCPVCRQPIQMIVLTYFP
quantity-measured: pIC50
Lab note: report pIC50 as minus log10 of the concentration in molar units, number only.

Worked set:
| chem-smiles | recorded-value |
| --- | --- |
| O=C1Nc2ccc(I)cc2C(=O)N([C@H](C(=O)O)C2CCCCC2)[C@H]1c1ccc(Cl)cc1 | 4.19 |
| O=C(O)[C@H](c1ccccc1)N1C(=O)c2cc(I)ccc2NC(=O)[C@@H]1c1ccccc1 | 4.42 |
| O=C(O)[C@H](c1ccc(Cl)cc1)N1C(=O)c2ccccc2NC(=O)[C@@H]1c1ccc(Cl)cc1 | 4.83 |
| CC(C)c1ccc([C@H]2C(=O)Nc3ccc(I)cc3C(=O)N2[C@H](C(=O)O)c2ccccc2)cc1 | 4.74 |
| Cc1ccc([C@H]2C(=O)Nc3ccc(I)cc3C(=O)N2[C@H](C(=O)O)c2ccccc2)cc1 | 4.88 |

Report pIC50 for O=C(O)[C@H](c1ccccc1)N1C(=O)c2cc(I)ccc2NC(=O)[C@@H]1c1cccc(C(F)(F)F)c1 please.
4.35

Check O=C(O)[C@H](c1ccccc1)N1C(=O)c2cc(I)ccc2NC(=O)[C@@H]1c1ccc(Cl)cc1 too.
5.60

* * *

- measured-target: Tumour suppressor p53/oncoprotein Mdm2 (Homo sapiens)
pIC50: −log10 of the molar value.
Where pIC50 equals or exceeds 5, the correct label is true; where it does not, the label is false.

| chem-smiles | category-label |
| --- | --- |
| O=C(O)[C@H](c1ccccc1)N1C(=O)c2cc(I)ccc2NC(=O)[C@@H]1c1ccccc1C(F)(F)F | false |
| O=C1Nc2ccc(I)cc2C(=O)N([C@H](C(=O)O)c2ccccc2Cl)[C@H]1c1ccc(Cl)cc1 | false |
| O=C(O)[C@H](c1ccc(Cl)cc1)N1C(=O)c2cc(Br)ccc2NC(=O)[C@@H]1c1ccc(Cl)cc1 | true |
| O=C(O)[C@H](c1ccc(Cl)cc1)N1C(=O)c2ccc(Cl)cc2NC(=O)[C@@H]1c1ccc(Cl)cc1 | true |
| N#Cc1ccc2c(c1)C(=O)N([C@H](C(=O)O)c1ccc(Cl)cc1)[C@@H](c1ccc(Cl)cc1)C(=O)N2 | false |
| CCCC[C@@H](C(=O)O)N1C(=O)c2cc(I)ccc2NC(=O)[C@@H]1c1ccc(Cl)cc1 | false |
| O=C(O)[C@H](c1ccc(Cl)cc1)N1C(=O)c2cc(I)ccc2NC(=O)[C@@H]1c1ccc(OC(F)(F)F)cc1 | true |
| CC(C)c1ccc2c(c1)C(=O)N([C@H](C(=O)O)c1ccc(Cl)cc1)[C@@H](c1ccc(Cl)cc1)C(=O)N2 | true |

Query compound follows.
Identify whether the reported pIC50 of the following compound is 5 or greater: C#Cc1ccc2c(c1)C(=O)N([C@H](C(=O)O)c1ccc(Cl)cc1)[C@@H](c1ccc(Cl)cc1)C(=O)N2
true
